Target: hP2X2/3 (Homo sapiens, UniProt P56373+Q9UBL9)
Sequence (P56373 whole entry): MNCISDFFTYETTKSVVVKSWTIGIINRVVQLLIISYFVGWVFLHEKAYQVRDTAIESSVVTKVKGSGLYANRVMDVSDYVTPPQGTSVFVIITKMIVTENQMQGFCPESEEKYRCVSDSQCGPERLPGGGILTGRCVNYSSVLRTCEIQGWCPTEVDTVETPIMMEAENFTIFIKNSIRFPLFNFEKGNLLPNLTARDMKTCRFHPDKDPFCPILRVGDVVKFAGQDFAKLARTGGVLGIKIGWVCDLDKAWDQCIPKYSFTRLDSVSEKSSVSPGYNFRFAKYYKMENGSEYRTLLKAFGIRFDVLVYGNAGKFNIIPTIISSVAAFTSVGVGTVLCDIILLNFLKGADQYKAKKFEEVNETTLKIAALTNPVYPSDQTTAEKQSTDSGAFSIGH
Sequence (Q9UBL9 whole entry): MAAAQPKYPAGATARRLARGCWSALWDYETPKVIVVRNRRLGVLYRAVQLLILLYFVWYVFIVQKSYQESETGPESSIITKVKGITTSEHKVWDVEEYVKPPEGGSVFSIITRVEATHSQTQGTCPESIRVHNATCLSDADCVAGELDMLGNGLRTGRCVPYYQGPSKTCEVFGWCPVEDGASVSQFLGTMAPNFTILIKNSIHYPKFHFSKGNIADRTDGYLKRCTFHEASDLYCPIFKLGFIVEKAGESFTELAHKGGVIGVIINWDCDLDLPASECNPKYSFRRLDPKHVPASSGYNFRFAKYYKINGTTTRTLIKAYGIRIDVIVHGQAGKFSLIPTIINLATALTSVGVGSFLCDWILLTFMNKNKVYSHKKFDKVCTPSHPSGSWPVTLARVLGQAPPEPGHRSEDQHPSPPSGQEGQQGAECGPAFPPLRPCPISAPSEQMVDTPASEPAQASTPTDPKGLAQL
Test: FLIPR intracellular calcium assay, hP2X2/3
Conditions: human P2X2/3-TRex293 cells, agonist at EC75
Below, each entry is listed with its recorded IC50.

CCC(C)n1ncc2nc(N3CCN(C(C)=O)CC3)nc(NC(c3ccc(-c4ccccc4)nc3)C3CC3)c21 (stereo not shown)	1 to 10 µM
CCC(C)n1cc2nc(N3CCN(C(C)=O)CC3)nc(N[C@H](C)c3cnc4ccccc4c3)c2n1 (stereo partly shown)	> 10 µM
CCC(CC)n1ncc2nc(N3CCN(C(C)=O)CC3)nc(N[C@H](C)c3cnc4ccc(F)cc4c3)c21	0.1 to 1 µM
CCC(CC)n1ncc2nc(N3CCN(C(C)=O)CC3)nc(N[C@H](C)c3ccc4ccccc4c3)c21	0.1 to 1 µM

Looking up CC[C@H](C)n1ncc2nc(N3CCN(C(N)=O)CC3)nc(NC(C)c3cnc4cc(F)c(F)cc4c3)c21 (stereo partly shown) , I see its IC50 listed as 0.1 to 1 µM

Noted for `CCC(CC)n1ncc2nc(N3CCN(C(N)=O)CC3)nc(NCc3cnc4ccccc4c3)c21` : its IC50 reads 1 to 10 µM

# IC50 (compound: CCC(C)n1ncc2nc(N3CCOC(C#N)C3)nc(N[C@@H](c3cnc4ccccc4c3)C3CC3)c21 (stereo partly shown) ) is 1 to 10 µM
